# target system: T1, EsCas13d, nuclease-dead (Eubacterium siraeum, UniProt B0MS50, R295A;H300A;R849A;H854A)
# T1 sequence: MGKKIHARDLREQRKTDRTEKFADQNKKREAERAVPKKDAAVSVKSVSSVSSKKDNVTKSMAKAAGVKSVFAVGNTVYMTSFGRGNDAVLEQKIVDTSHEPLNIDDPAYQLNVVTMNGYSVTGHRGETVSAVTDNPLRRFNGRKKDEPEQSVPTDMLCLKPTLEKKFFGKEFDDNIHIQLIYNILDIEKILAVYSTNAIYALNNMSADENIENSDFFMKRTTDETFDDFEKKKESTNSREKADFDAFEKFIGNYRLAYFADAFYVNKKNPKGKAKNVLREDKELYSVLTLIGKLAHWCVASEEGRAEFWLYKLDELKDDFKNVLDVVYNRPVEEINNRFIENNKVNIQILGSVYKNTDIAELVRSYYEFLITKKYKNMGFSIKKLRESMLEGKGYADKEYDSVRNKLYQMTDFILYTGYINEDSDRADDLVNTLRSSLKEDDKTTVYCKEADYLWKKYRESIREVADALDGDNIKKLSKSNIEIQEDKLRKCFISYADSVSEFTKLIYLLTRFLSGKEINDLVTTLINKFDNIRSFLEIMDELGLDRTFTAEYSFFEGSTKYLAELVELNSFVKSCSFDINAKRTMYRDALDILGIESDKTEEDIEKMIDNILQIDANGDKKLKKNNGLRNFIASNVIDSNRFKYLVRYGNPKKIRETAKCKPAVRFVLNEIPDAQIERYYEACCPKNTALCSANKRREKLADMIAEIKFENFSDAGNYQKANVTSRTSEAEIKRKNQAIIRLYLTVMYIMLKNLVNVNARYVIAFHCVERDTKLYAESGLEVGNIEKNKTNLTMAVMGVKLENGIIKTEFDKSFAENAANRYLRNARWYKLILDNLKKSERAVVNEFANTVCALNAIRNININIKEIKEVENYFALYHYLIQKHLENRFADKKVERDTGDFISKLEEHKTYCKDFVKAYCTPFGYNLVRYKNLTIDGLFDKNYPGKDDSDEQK
# protocol notes: crRNA (strand 1, pre-loaded); Mg2+; 40 mM Tris-HCl pH 7.5, 150 mM NaCl, 6 mM MgCl2, 1 mM DTT, 0.1% Tween-20, 0.2 mg/ml BSA; 25 C; 10 min per concentration, then washed
# run parameters: tags: His6-TwinStrep-SUMO cleaved; N-terminal SNAP kept (SNAP-Surface 488); label: 3' end held by stalled T7 RNA polymerase
Would you kindly list Kd for each of these binders?
Reply with a number, then the unit it belongs to.

These solved cases illustrate the format of a correct answer.
Using the record for target 1 insU 3' of 14,insG 3' of 2 (mixed) RNA 1: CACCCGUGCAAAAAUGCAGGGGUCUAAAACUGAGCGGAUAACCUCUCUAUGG RNA 2: GGGAAUGGAUCCACAUCUACGAAUUCGUACCAUAGAGAUGGUUAUCCGCUCGACCGAGAUCGGAAGAGCACACGU , report its Kd.
44 nM

Using the record for target 1 MT 5'PFS GCC 3'PFS CCU (mixed) RNA 1: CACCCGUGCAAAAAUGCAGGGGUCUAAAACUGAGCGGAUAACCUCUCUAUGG RNA 2: GGGAAUGGAUCCACAUCUACGAAUUCGCCCCAUAGAGAGGUUAUCCGCUCACCUAGAUCGGAAGAGCACACGU , report its Kd.
8.9 nM

Using the record for target 2 MT 5'PFS CAU 3'PFS ACA (mixed) RNA 1: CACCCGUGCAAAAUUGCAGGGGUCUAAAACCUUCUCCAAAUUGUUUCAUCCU RNA 2: GGGAAUGGAUCCACAUCUACGAAUUCCAUAGGAUGAAACAAUUUGGAGAAGACAAGAUCGGAAGAGCACACGU , report its Kd.
6 nM

The record that follows has no Kd shown yet.
Using the record for target 2 MT 5'PFS GGA 3'PFS AAC (mixed) RNA 1: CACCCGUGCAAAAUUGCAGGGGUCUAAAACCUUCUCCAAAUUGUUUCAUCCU RNA 2: GGGAAUGGAUCCACAUCUACGAAUUCGGAAGGAUGAAACAAUUUGGAGAAGAACAGAUCGGAAGAGCACACGU , report its Kd.
7.4 nM
